SYSTEM_TESTED: IL-6 (Homo sapiens)
Construct: purchased R&D Systems BT7270B
TEST_DESCRIPTION: Biacore surface plasmon resonance binding of peptides to immobilised IL-6
CONDITIONS: Table 2, mutation combinations; N terminus acetylated, C terminus amidated; nd = not detected; read-out: KD (nM) P < 0.05
PROPERTY: Kd (nM)
Value expressed in nM; do not type the unit.

*Q* Provide the reported Kd (system: IL-6 (Homo sapiens)) for Ac-SVRDLLRRMKVCVG-NH2 [27(2), SVRDLLRRMKVCVG]
*A* 580

----------
SYSTEM_TESTED: IL-6 (Homo sapiens, UniProt P05231)
Construct: purchased R&D Systems BT7270B
TEST_DESCRIPTION: Biacore surface plasmon resonance binding of peptides to immobilised IL-6
CONDITIONS: Table 2; N terminus acetylated, C terminus amidated; cells printed in μM; read-out: KD (nM) P < 0.05
PROPERTY: Kd

Some solved entries appear below for comparison.
*Q* Read off the recorded Kd for Ac-ATIRDLLRMMKHIVG-NH2 [Peptide 95, ATIRDLLRMMKHIVG]
*A* > 10 µM

*Q* Read off the recorded Kd for Ac-ATIRDLIRMMKHIVG-NH2 [Peptide 96, ATIRDLIRMMKHIVG]
*A* > 10 µM

*Q* Read off the recorded Kd for Ac-SFRDLLRMMKHIVG-NH2 [Peptide 89, SFRDLLRMMKHIVG]
*A* > 10 µM

*Q* Read off the recorded Kd for Ac-TIRDLLRRMKHIVG-NH2 [Peptide 97, TIRDLLRRMKHIVG]
*A* > 10 µM

We next turn to a different substance, shown below.
*Q* Read off the recorded Kd for Ac-ATIRDLLRRMKHIVG-NH2 [Peptide 94, ATIRDLLRRMKHIVG]
*A* > 10 µM
